The measured values listed here are drawn from PubChem BioAssay AID2060500.

# Test system: 596521-263-R-J1-PDC complex spheroids, viability % of control
# experimental.details: Anticancer human tumor 596521-263-R-J1-PDC patient-derived soft tissue sarcoma cell line growth inhibition [GQUAD]
# assay.conditions: second compound 0.1 µM; first compound 0.1 µM; hits give low values
# strict inequality: viability, T/C < 90% yields YES, everything else yields NO

Please determine if COc1ncnc(C2CC2)c1-c1ncc2cnn(Cc3ccc(-c4nc(C(F)(F)F)cn4C(C)C)cc3)c2n1 + Cc1cnc(CNC(=O)c2c(=O)c3ccc(N4CCCN(C)CC4)nc3n3c2sc2ccccc23)cn1 is below 90% in terms of viability, T/C.
YES

Is 90% strictly greater than the molecule's reported viability, T/C? molecule: CC(=O)O[C@H]1C(=O)[C@@]2(C)[C@H]([C@H](OC(=O)c3ccccc3)[C@]3(O)C[C@H](OC(=O)[C@H](O)[C@@H](NC(=O)c4ccccc4)c4ccccc4)C(C)=C1C3(C)C)[C@]1(OC(C)=O)CO[C@@H]1C[C@@H]2O + Cc1cnc(CNC(=O)c2c(=O)c3ccc(N4CCCN(C)CC4)nc3n3c2sc2ccccc23)cn1
YES

Does the reported viability, T/C of C#Cc1c(F)ccc2cc(O)cc(-c3ncc4c(N5CC6CCC(C5)N6)nc(OCC56CCCN5CC(F)C6)nc4c3F)c12 (stereo not given) + Cc1[nH]c2ccc(F)cc2c1-c1nc2c3cccnc3c3ncccc3c2[nH]1 stay below 90%?
NO

Could you please tell me whether viability, T/C recorded for O=C(c1cc(Cc2n[nH]c(=O)c3ccccc23)ccc1F)N1CCN(C(=O)C2CC2)CC1 + Cc1cnc(CNC(=O)c2c(=O)c3ccc(N4CCCN(C)CC4)nc3n3c2sc2ccccc23)cn1 is less than 90%?
YES

Does Cc1cccc(N(C)C(=O)C2C(O)CCN2c2nc(C)cc(C(F)(F)F)c2C#N)c1 (stereo not given) + Cc1[nH]c2ccc(F)cc2c1-c1nc2c3cccnc3c3ncccc3c2[nH]1 have viability, T/C strictly under 90%?
NO

====

# System: 596521-263-R-J1-PDC complex spheroids, viability % of control
# experimental.details: Anticancer human tumor 596521-263-R-J1-PDC cell line growth inhibition [GQUAD];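 note: spheroids exposed to drugs for 7 days before viability reading; 100% = DMSO vehicle control viability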
# assay.conditions: second compound 0.316 µM; first compound 3.16 µM; hits give low values
Friendly reminder: viability, T/C below 70% is label 1, at or above is label 0.

viability, T/C under 70%? Item: Cc1cccc(N(C)C(=O)C2C(O)CCN2c2nc(C)cc(C(F)(F)F)c2C#N)c1 (stereo unspecified) + Cc1[nH]c2ccc(F)cc2c1-c1nc2c3cccnc3c3ncccc3c2[nH]1
label 0

Quick check: viability, T/C of CC1COCCN1c1cc(C2(S(C)(=N)=O)CC2)nc(-c2ccnc3[nH]ccc23)n1 (stereo unspecified) + Cc1[nH]c2ccc(F)cc2c1-c1nc2c3cccnc3c3ncccc3c2[nH]1 under 70%?
label 1

Could you please tell me whether viability, T/C recorded for O=c1[nH]cc(F)c(=O)[nH]1 + Cc1[nH]c2ccc(F)cc2c1-c1nc2c3cccnc3c3ncccc3c2[nH]1 is less than 70%?
label 0

Problem: For the compound CC1COCCN1c1cc(-c2ccnn2C)c2ccnc(-c3ccn[nH]3)c2n1 (stereo unspecified) + Cc1cnc(CNC(=O)c2c(=O)c3ccc(N4CCCN(C)CC4)nc3n3c2sc2ccccc23)cn1 , is viability, T/C under 70%?
label 1

Strictly below 70%: is that where viability, T/C of C#Cc1c(F)ccc2cc(O)cc(-c3ncc4c(N5CC6CCC(C5)N6)nc(OCC56CCCN5CC(F)C6)nc4c3F)c12 (stereo unspecified) + Cc1cnc(CNC(=O)c2c(=O)c3ccc(N4CCCN(C)CC4)nc3n3c2sc2ccccc23)cn1 sits?
label 0

====

# Test system: 596521-263-R-J1-PDC complex spheroids, viability % of control
# experimental.details: Anticancer human tumor 596521-263-R-J1-PDC cell line growth inhibition [GQUAD];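 note: spheroids exposed to drugs for 7 days before viability reading; 100% = DMSO vehicle control viability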
# assay.conditions: second compound 0.0316 µM; first compound 0.1 µM; hits give low values
property.label: viability, T/C (%)
Please state the figure in %; there is no need to write the unit.

Please give the documented viability, T/C of COc1cccc2c1C(=O)c1c(O)c3c(c(O)c1C2=O)CC(O)(C(=O)CO)CC3OC1CC(N)C(O)C(C)O1 (stereo unspecified) + Cc1[nH]c2ccc(F)cc2c1-c1nc2c3cccnc3c3ncccc3c2[nH]1
76.6

Could you please provide reported viability, T/C for CCCS(=O)(=O)Nc1ccc(F)c(C(=O)c2c[nH]c3ncc(-c4ccc(Cl)cc4)cc23)c1F + Cc1cnc(CNC(=O)c2c(=O)c3ccc(N4CCCN(C)CC4)nc3n3c2sc2ccccc23)cn1 ? Thanks!
90.1

Could you please provide reported viability, T/C for CC(C)n1c(=O)n(C)c2cnc3cc(F)c(-c4ccc(OCCCN5CCCCC5)nc4)cc3c21 + Cc1[nH]c2ccc(F)cc2c1-c1nc2c3cccnc3c3ncccc3c2[nH]1 ? Thanks!
82.2

Return value of viability, T/C for input CC1COCCN1c1cc(C2(O)CC3CCC(C2)O3)c2cnn(-c3ccn[nH]3)c2n1 (stereo unspecified) + CN(C)c1ccc(Nc2c3ccc(NC(=O)CCN4CCCC4)cc3nc3cc(NC(=O)CCN4CCCC4)ccc23)cc1 , no commentary.
48.7

Specify reported viability, T/C for the compound shown: CC1COCCN1c1cc(C2(S(C)(=N)=O)CC2)nc(-c2ccnc3[nH]ccc23)n1 (stereo unspecified) + Cc1[nH]c2ccc(F)cc2c1-c1nc2c3cccnc3c3ncccc3c2[nH]1
92.9

Name the recorded viability, T/C of the item O=C(c1cc(Cc2n[nH]c(=O)c3ccccc23)ccc1F)N1CCN(C(=O)C2CC2)CC1 + Cc1[nH]c2ccc(F)cc2c1-c1nc2c3cccnc3c3ncccc3c2[nH]1 in your answer.
97.8

Specify reported viability, T/C for the compound shown: CC1COCCN1c1cc(C2(S(C)(=N)=O)CC2)nc(-c2ccnc3[nH]ccc23)n1 (stereo unspecified) + Cc1cnc(CNC(=O)c2c(=O)c3ccc(N4CCCN(C)CC4)nc3n3c2sc2ccccc23)cn1
101

Tell me its viability, T/C given CC1COCCN1c1cc(-c2ccnn2C)c2ccnc(-c3ccn[nH]3)c2n1 (stereo unspecified) + Cc1[nH]c2ccc(F)cc2c1-c1nc2c3cccnc3c3ncccc3c2[nH]1 as the entry.
61.8

Answer with reported viability, T/C of O=c1[nH]cc(F)c(=O)[nH]1 + CN(C)c1ccc(Nc2c3ccc(NC(=O)CCN4CCCC4)cc3nc3cc(NC(=O)CCN4CCCC4)ccc23)cc1
118

For COc1cc(C2c3cc4c(cc3C(OC3OC5COC(C)OC5C(O)C3O)C3COC(=O)C23)OCO4)cc(OC)c1O (stereo unspecified) + Cc1[nH]c2ccc(F)cc2c1-c1nc2c3cccnc3c3ncccc3c2[nH]1 , write its viability, T/C.
78.9

Input CC(C)(O)C1CCC(Nc2ccc3ncc(-c4cccc(C(F)(F)F)c4)n3n2)CC1 (stereo unspecified) + Cc1cnc(CNC(=O)c2c(=O)c3ccc(N4CCCN(C)CC4)nc3n3c2sc2ccccc23)cn1 , output reported viability, T/C.
82.3

Look up and report measured viability, T/C for this entry: COc1cccc2c1C(=O)c1c(O)c3c(c(O)c1C2=O)CC(O)(C(=O)CO)CC3OC1CC(N)C(O)C(C)O1 (stereo unspecified) + Cc1cnc(CNC(=O)c2c(=O)c3ccc(N4CCCN(C)CC4)nc3n3c2sc2ccccc23)cn1
71.2

Return value of viability, T/C for input CC1COCCN1c1cc(C2(S(C)(=N)=O)CC2)nc(-c2ccnc3[nH]ccc23)n1 (stereo unspecified) + CN(C)c1ccc(Nc2c3ccc(NC(=O)CCN4CCCC4)cc3nc3cc(NC(=O)CCN4CCCC4)ccc23)cc1 , no commentary.
97.1

Hello, please tell me recorded viability, T/C for this one: COc1ncnc(C2CC2)c1-c1ncc2cnn(Cc3ccc(-c4nc(C(F)(F)F)cn4C(C)C)cc3)c2n1 + CN(C)c1ccc(Nc2c3ccc(NC(=O)CCN4CCCC4)cc3nc3cc(NC(=O)CCN4CCCC4)ccc23)cc1
100

Return value of viability, T/C for input COc1ncnc(C2CC2)c1-c1ncc2cnn(Cc3ccc(-c4nc(C(F)(F)F)cn4C(C)C)cc3)c2n1 + Cc1[nH]c2ccc(F)cc2c1-c1nc2c3cccnc3c3ncccc3c2[nH]1 , no commentary.
88.8

Complete the entry with viability, T/C for CC(C)(O)C1CCC(Nc2ccc3ncc(-c4cccc(C(F)(F)F)c4)n3n2)CC1 (stereo unspecified) + Cc1[nH]c2ccc(F)cc2c1-c1nc2c3cccnc3c3ncccc3c2[nH]1
96.8

Give me measured viability, T/C, please, for this compound: COc1ccc([C@@H](O)c2cc(-c3ncnc4cc(N5CCOCC5)ccc34)c(F)cc2Cl)nn1 + Cc1cnc(CNC(=O)c2c(=O)c3ccc(N4CCCN(C)CC4)nc3n3c2sc2ccccc23)cn1
80.7

Let me know recorded viability, T/C for O=C(NO)c1cnc(N2CCN(S(=O)(=O)c3ccc4ccccc4c3)CC2)nc1 + CN(C)c1ccc(Nc2c3ccc(NC(=O)CCN4CCCC4)cc3nc3cc(NC(=O)CCN4CCCC4)ccc23)cc1 , thanks.
54.4

Read the entry COc1ncnc(C2CC2)c1-c1ncc2cnn(Cc3ccc(-c4nc(C(F)(F)F)cn4C(C)C)cc3)c2n1 + Cc1cnc(CNC(=O)c2c(=O)c3ccc(N4CCCN(C)CC4)nc3n3c2sc2ccccc23)cn1 and write its reported viability, T/C.
90.6

Give the value of viability, T/C reported for the following: C#Cc1c(F)ccc2cc(O)cc(-c3ncc4c(N5CC6CCC(C5)N6)nc(OCC56CCCN5CC(F)C6)nc4c3F)c12 (stereo unspecified) + Cc1[nH]c2ccc(F)cc2c1-c1nc2c3cccnc3c3ncccc3c2[nH]1
94.7

Give me measured viability, T/C, please, for this compound: C=CC(=O)N1CCN(c2nc(=O)n(-c3c(C)ccnc3C(C)C)c3nc(-c4c(O)cccc4F)c(F)cc23)C(C)C1 (stereo unspecified) + Cc1[nH]c2ccc(F)cc2c1-c1nc2c3cccnc3c3ncccc3c2[nH]1
102
